Dear all, this message contains IC50 results, target or system K. pneumoniae LpxC (Klebsiella pneumoniae subsp. pneumoniae).
Supply the numeric figure in nM, leaving out any unit text.

Worked cases, answers included:
C[C@H](O)c1nccn1[C@@H](C#Cc1ccc(-c2ccc(O[C@H]3COC[C@@H]3N)cc2)cc1)CO (relative stereo) [Compound 15] ... 1.6
C[C@H](O)c1nccn1[C@@H](C#Cc1ccc(-c2ccc(O[C@H]3COC[C@@H]3O)cc2)cc1)CO (relative stereo) [Compound 10] ... 0.9
C[C@H](O)c1nccn1[C@@H](C#Cc1ccc(-c2ccc(OCCC(O)CO)cc2)cc1)CO (mixture of isomers) [Compound 17] ... 1
C[C@H](O)c1nccn1CC#Cc1ccc(-c2ccc(C3CC(NCCC#N)C3)cc2)cc1 (stereo partly shown) [Compound 18] ... 0.6
C[C@H](O)c1nccn1[C@@H](C#Cc1ccc(-c2ccc(OC(CO)CCO)cc2)cc1)CO (mixture of isomers) [Compound 22] ... 1.5
C[C@H](O)c1nccn1[C@@H](C#Cc1ccc(-c2ccc(OC[C@@H](O)CO)cc2)cc1)CO [Compound 8] ... 1.9
C[C@H](O)c1nccn1CC#Cc1ccc(-c2ccc(C3CC(NCCO)C3)cc2)cc1 (stereo partly shown) [Compound 19] ... 0.7
C[C@H](O)c1nccn1CC#Cc1ccc(-c2ccc(C3CC(NC4COC4)C3)cc2)cc1 (stereo partly shown) [Compound 20] ... 0.7

Recall and state the measured IC50 for COCC(N)COc1ccc(-c2ccc(C#C[C@@H](CO)n3ccnc3[C@H](C)O)cc2)cc1 (mixture of isomers) [Compound 3] .
2.2

Recall and state the measured IC50 for C[C@H](O)c1nccn1[C@@H](C#Cc1ccc(-c2ccc(OCC(C)(O)CO)cc2)cc1)CO (mixture of isomers) [Compound 16] .
2.2

---

Dear all, this message contains MIC results, target or system K. pneumoniae ATCC13883.
Supply the numeric figure in µg/mL, leaving out any unit text.

C[C@H](O)c1nccn1[C@@H](C#Cc1ccc(-c2ccc(O[C@@H]3CN(CC#N)C[C@H]3O)cc2)cc1)CO ... 8
C[C@H](O)c1nccn1[C@@H](C#Cc1ccc(-c2ccc([C@H]3C[C@H](NS(C)(=O)=O)C3)cc2)cc1)CO ... 1

GET MIC where system = K. pneumoniae ATCC13883 and item = C[C@H](O)c1nccn1[C@@H](C#Cc1ccc(-c2ccc(OCC3COCCO3)cc2)cc1)CO (mixture of isomers)
1

GET MIC where system = K. pneumoniae ATCC13883 and item = C[C@H](O)c1nccn1CC#Cc1ccc(-c2ccc(C3CC(NCc4cocn4)C3)cc2)cc1 (stereo partly shown)
0.5

GET MIC where system = K. pneumoniae ATCC13883 and item = C[C@H](O)c1nccn1[C@@H](C#Cc1ccc(-c2ccc(C3CC(NC(C#N)CO)C3)cc2)cc1)CO (stereo partly shown)
4

GET MIC where system = K. pneumoniae ATCC13883 and item = COCCN1C[C@@H](O)[C@H](Oc2ccc(-c3ccc(C#C[C@@H](CO)n4ccnc4[C@H](C)O)cc3)cc2)C1
4

GET MIC where system = K. pneumoniae ATCC13883 and item = C[C@H](O)c1nccn1[C@@H](C#Cc1ccc(-c2ccc(OC(CO)CCO)cc2)cc1)CO (mixture of isomers)
4

GET MIC where system = K. pneumoniae ATCC13883 and item = C[C@H](O)c1nccn1[C@@H](C#Cc1ccc(-c2ccc(OCCC(O)CO)cc2)cc1)CO (mixture of isomers)
2

GET MIC where system = K. pneumoniae ATCC13883 and item = C[C@H](O)c1nccn1CC#Cc1ccc(-c2ccc(C3CC(NCC(=N)N)C3)cc2)cc1 (stereo partly shown)
0.5

GET MIC where system = K. pneumoniae ATCC13883 and item = C[C@H](O)c1nccn1CC#Cc1ccc(-c2ccc(C3CC(NC4COC4)C3)cc2)cc1 (stereo partly shown)
0.5

---

Target: E. coli LpxC (Escherichia coli)
Sequence (P0A725 1-305): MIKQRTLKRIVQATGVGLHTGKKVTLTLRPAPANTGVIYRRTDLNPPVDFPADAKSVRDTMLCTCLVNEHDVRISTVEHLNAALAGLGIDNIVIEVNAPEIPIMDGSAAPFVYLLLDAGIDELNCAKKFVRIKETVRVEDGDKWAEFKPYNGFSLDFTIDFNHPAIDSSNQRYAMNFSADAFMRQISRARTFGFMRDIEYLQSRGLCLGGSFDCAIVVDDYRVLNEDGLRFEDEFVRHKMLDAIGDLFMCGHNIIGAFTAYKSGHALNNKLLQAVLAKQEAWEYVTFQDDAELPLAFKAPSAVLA
QUANTITY: IC50 (nM)
Supply the numeric figure in nM, leaving out any unit text.

C[C@H](O)c1nccn1[C@@H](C#Cc1ccc(-c2ccc(OC[C@@H](O)CO)cc2)cc1)CO ... 1

GET IC50 where system = E. coli LpxC (Escherichia coli) and item = C[C@H](O)c1nccn1[C@@H](C#Cc1ccc(-c2ccc(O[C@H]3COC[C@@H]3N)cc2)cc1)CO (relative stereo)
1

GET IC50 where system = E. coli LpxC (Escherichia coli) and item = C[C@H](O)c1nccn1[C@@H](C#Cc1ccc(-c2ccc(OCC(CO)CO)cc2)cc1)CO
1

---

Biological target: K. pneumoniae LpxC (Klebsiella pneumoniae subsp. pneumoniae, UniProt A6T4N9)
Sequence (A6T4N9 whole entry): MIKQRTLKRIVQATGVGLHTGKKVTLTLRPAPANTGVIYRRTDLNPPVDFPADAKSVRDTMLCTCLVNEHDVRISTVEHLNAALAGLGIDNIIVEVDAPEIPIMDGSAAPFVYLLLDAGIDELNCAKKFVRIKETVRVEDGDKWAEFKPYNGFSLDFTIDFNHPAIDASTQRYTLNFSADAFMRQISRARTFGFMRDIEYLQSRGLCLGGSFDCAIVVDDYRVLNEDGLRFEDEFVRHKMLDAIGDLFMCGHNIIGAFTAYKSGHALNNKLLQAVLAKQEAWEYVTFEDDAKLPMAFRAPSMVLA
QUANTITY: IC50 (nM)
Supply the numeric figure in nM, leaving out any unit text.

Worked cases, answers included:
C[C@H](O)c1nccn1[C@@H](C#Cc1ccc(-c2ccc(CO[C@@H]3C[C@H]3N)cc2)cc1)CO (racemic) [Compound 9] ... 3.9
C[C@H](O)c1nccn1[C@@H](C#Cc1ccc(-c2ccc(O[C@@H]3C[C@H]3NCCF)cc2)cc1)CO (racemic) [Compound 12] ... 1.1
C[C@H](O)c1nccn1[C@@H](C#Cc1ccc(-c2ccc(OCC(O)CCCO)cc2)cc1)CO (stereo partly shown) [Compound 23] ... 1

Consider now this further compound.
Recall and state the measured IC50 for C[C@H](O)c1nccn1[C@@H](C#Cc1ccc(-c2ccc(OCC(CO)CO)cc2)cc1)CO [Compound 11] .
1.8

---

// IC50 lookup, one value per entry
Biological target: K. pneumoniae LpxC (Klebsiella pneumoniae subsp. pneumoniae)
Supply the numeric figure in pM, leaving out any unit text.

Worked cases, answers included:
C[C@H](O)c1nccn1CC#Cc1ccc(-c2ccc(C3CN(C(=O)CO)C3)cc2)cc1 [Compound 21] ... 700
COC[C@@H](O)COc1ccc(-c2ccc(C#C[C@@H](CO)n3ccnc3[C@H](C)O)cc2)cc1 [Compound 14] ... 900
C[C@H](O)c1nccn1[C@@H](C#Cc1ccc(-c2ccc(OCC3COCCO3)cc2)cc1)CO (mixture of isomers) [Compound 13] ... 900

Consider now this further molecule.
GET IC50 where system = K. pneumoniae LpxC (Klebsiella pneumoniae subsp. pneumoniae) and item = C[C@H](O)c1nccn1[C@@H](C#Cc1ccc(-c2ccc(O[C@H]3COC[C@@H]3O)cc2)cc1)CN (relative stereo) [Compound 24]
4100

---

// MIC lookup, one value per entry
Test system: P. aeruginosa 209 PAO1
Test: Bacterial susceptibility testing, MIC by broth microdilution (CLSI)
Type: cell-based
Settings: Pseudomonas aeruginosa, 35° C., 18-24 h, read-out: MIC (μg/mL) P. aeruginosa 209 PAO1
Supply the numeric figure in µg/mL, leaving out any unit text.

C[C@H](O)c1nccn1CC#Cc1ccc(-c2ccc(C3CC(NCCO)C3)cc2)cc1 (some centres unmarked) ... 4
C[C@H](O)c1nccn1CC#Cc1ccc(-c2ccc(C3CC(NC4COC4)C3)cc2)cc1 (some centres unmarked) ... 4
C[C@H](O)c1nccn1[C@@H](C#Cc1ccc(-c2ccc(CO[C@@H]3C[C@H]3N)cc2)cc1)CO (racemic) ... 2
C[C@H](O)c1nccn1[C@@H](C#Cc1ccc(-c2ccc(O[C@@H]3COC[C@H]3O)cc2)cc1)CCO ... 4
C[C@H](O)c1nccn1CC#Cc1ccc(-c2ccc(OCC(N)CO)cc2)cc1 (mixture of isomers) ... 2
COCCN1C[C@@H](O)[C@H](Oc2ccc(-c3ccc(C#C[C@@H](CO)n4ccnc4[C@H](C)O)cc3)cc2)C1 ... 4

Recall and state the measured MIC for C[C@H](O)c1nccn1[C@@H](C#Cc1ccc(-c2ccc(O[C@H]3COC[C@@H]3O)cc2)cc1)CO (relative stereo) [Compound 10] .
1

---

// MIC lookup, one value per entry
Tested on: P. aeruginosa 209 PAO1
Experiment: Bacterial susceptibility testing, MIC by broth microdilution (CLSI)
Format: cell-based
Details: Pseudomonas aeruginosa, 35° C., 18-24 h, read-out: MIC (μg/mL) P. aeruginosa 209 PAO1
Supply the numeric figure in µg/mL, leaving out any unit text.

Worked cases, answers included:
C[C@H](O)c1nccn1CC#Cc1ccc(-c2ccc(O[C@@H]3COC[C@H]3O)cc2)cc1 ... 2
C[C@H](O)c1nccn1[C@@H](C#Cc1ccc(-c2ccc(O[C@H]3COC[C@@H]3N)cc2)cc1)CO (relative stereo) ... 0.5
CC(CNC1CC(c2ccc(-c3ccc(C#C[C@@H](CO)n4ccnc4[C@H](C)O)cc3)cc2)C1)C(=O)O (stereo partly shown) ... 4

Consider now this further compound.
Recall and state the measured MIC for C[C@H](O)c1nccn1[C@@H](C#Cc1ccc(-c2ccc(C3CC(NCC#N)C3)cc2)cc1)CO (stereo partly shown) .
2
